# Target Under Test: NAMPT (human, recombinant, C-terminally His-tagged) (Homo sapiens, UniProt P43490)
# Sequence (P43490 whole entry): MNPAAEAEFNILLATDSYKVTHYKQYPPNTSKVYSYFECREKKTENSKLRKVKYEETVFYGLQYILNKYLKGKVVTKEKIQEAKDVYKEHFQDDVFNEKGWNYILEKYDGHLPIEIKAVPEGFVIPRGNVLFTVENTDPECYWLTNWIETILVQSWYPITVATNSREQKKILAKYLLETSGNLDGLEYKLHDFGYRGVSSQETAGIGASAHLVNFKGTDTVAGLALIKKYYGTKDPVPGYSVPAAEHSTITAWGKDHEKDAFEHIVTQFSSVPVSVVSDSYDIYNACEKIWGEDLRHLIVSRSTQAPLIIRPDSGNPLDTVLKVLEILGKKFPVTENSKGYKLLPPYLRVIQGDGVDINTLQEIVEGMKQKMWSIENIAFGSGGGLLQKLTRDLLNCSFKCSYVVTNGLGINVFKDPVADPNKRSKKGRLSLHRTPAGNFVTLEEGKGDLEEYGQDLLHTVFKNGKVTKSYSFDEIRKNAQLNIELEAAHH
# Experiment: Time-Resolved Fluorescence Resonance Energy Transfer (TR-FRET) Binding Assay of NAMPT
# Test Parameters: 6.8 nM NAMPT, 200 nM probe, equilibrated 3 hours, absence of substrates
Experimental Endpoint: pIC50
On this scale, pIC50 is minus log10 of a concentration expressed in M (mol/L).

stdin: Which pIC50 is reported for this compound? O=C(Nc1ccc(OC2CCN(C(=O)c3ccc(F)c(F)c3)CC2)cc1)C1CN(c2ccnnc2)C1
stdout: 6.82

stdin: I am curious: what pIC50 value has been reported for O=C(Nc1ccc(OC2CCN(C(=O)c3ccc(Cl)cc3)CC2)cc1)C1CN(c2ccnnc2)C1 ?
stdout: 6.98

stdin: Sample Cc1cc(C)cc(CC(=O)N2CCC(c3ccc(NC(=O)C4CN(c5cccnn5)C4)cc3)CC2)c1 — what was its pIC50?
stdout: 7.78

stdin: Give its pIC50 value. Item: O=C(Nc1ccc(OC2CCN(C(=O)c3nccs3)CC2)cc1)C1CN(c2ccnnc2)C1
stdout: 7.14

stdin: // returns reported pIC50 for input COCC(=O)N1CCC(Oc2ccc(NC(=O)C3CN(c4cccnn4)C3)cc2)CC1
stdout: 6.75

stdin: So what's the measured pIC50 for this one? O=C(Nc1ccc(OC2CCN(C(=O)C3CCCC3)CC2)cc1)C1CN(c2cccnc2)C1
stdout: 7.29

stdin: What value of measured pIC50 is listed for Cc1ncccc1N1CC(C(=O)Nc2ccc(C3CCN(C(=O)c4ccc(F)cc4)CC3)cc2)C1 ?
stdout: 6.53

stdin: Given the compound CCC(C)(C)C(=O)N1CCC(c2ccc(NC(=O)C3CN(c4cccnn4)C3)cc2)CC1 , what is its reported pIC50?
stdout: 7.85
